Origin of the recorded values: patent US4257941A

System: Datura stramonium
Experiment: Herbicidal action (Example 25)
Assay type: in vivo
Details: postemergence, 4.0 kg/ha
attributeMeasured: percentage damage (percentage damage)
Express the result in percentage damage but write the number alone.

Record excerpt, results attached:
INSERT INTO results (compound, attributemeasured, displayunit, reportedvalue) VALUES
  ('c1csc(N2N=NC3C4CC(C5N=NC45)C32)n1 (centres unmarked) [drawing 430]', 'percentage damage', 'percentage damage', 60),
  ('CN(C)C(=O)Nc1ccc(Oc2ccccc2)cc1 [drawing 424]', 'percentage damage', 'percentage damage', 95),
  ('C=CCN(CC=C)C(=O)CCl [drawing 425]', 'percentage damage', 'percentage damage', 20),
  ('c1ccc(N2N=NC3C4CC(C5N=NC45)C32)cc1 (centres unmarked) [drawing 429]', 'percentage damage', 'percentage damage', 95);

Okay, next one:
# input Give me measured percentage damage, please, for this compound: CC(C)OC(=O)Nc1cccc(Cl)c1 [drawing 423]
# output 40

* * *

Tested on: lawns
Assay: Long-term action on lawns (Example 14)
Assay type: in vivo
Details: 4.0 kg/ha; control 100
attributeMeasured: Second cutting, growth height relative
No unit in the answer, please; the number alone is enough.

Record excerpt, results attached:
INSERT INTO results (molecule, reportedvalue) VALUES
  ('Clc1ccc(N2N=NC3C4CC(C5NNC45)C32)cc1 (stereo not drawn) [drawing 381]', 34.0),
  ('Brc1ccc(N2N=NC3C4CC(C5N=NC45)C32)cc1 (stereo not drawn) [drawing 380]', 47.6),
  ('Fc1ccc(N2N=NC3C4CC(C5N=NC45)C32)cc1 (stereo not drawn)', 13.6),
  ('c1cc2sncc2cc1N1N=NC2C3CC(C4N=NC34)C21 (stereo not drawn) [drawing 382]', 47.6),
  ('CC(=O)Nc1ccc(C)c(NS(=O)(=O)C(F)(F)F)c1 [S, reference compound]', 30.6);

# input Give me measured Second cutting, growth height relative, please, for this molecule: Cc1ccccc1N1N=NC2C3CC(C4N=NC34)C21 (stereo not drawn)
# output 51.0

* * *

Tested on: lawns
Assay: Long-term action on lawns (Example 14)
Type: in vivo
Settings: 2.0 kg/ha; control 100
Entries and their measured First cutting, green weight relative follow.
No unit in the answer, please; the number alone is enough.

# input Give me measured First cutting, green weight relative, please, for this compound: Clc1ccc(N2N=NC3C4CC(C5NNC45)C32)cc1 (stereo not drawn) [drawing 381]
# output 48.7

* * *

Entries and their measured response vs control in vivo at 6000 g/ha follow.
Test system: soybeans
Assay: Soybeans in a vegetation experiment in sandy loam (Example 19)
Type: in vivo, soybean (Gieso variety)
Conditions: Glycine max, 672 h; 6.0 kg/ha; control 100; read-out: Growth height relative
Express the result in % but write the number alone.

Record excerpt, results attached:
INSERT INTO measurements (molecule, reportedvalue) VALUES
  ('FC(F)(F)c1ccc(Cl)c(N2N=NC3C4CC(C5N=NC45)C32)c1 (stereo not shown) [drawing 396]', 58.7),
  ('Clc1cccc(N2N=NC3C4CC(C5N=NC45)C32)c1 (stereo not shown) [drawing 394]', 63),
  ('Brc1cccc(N2N=NC3C4CC(C5N=NC45)C32)c1 (stereo not shown) [drawing 399]', 69.6),
  ('Brc1ccccc1N1N=NC2C3CC(C4N=NC34)C21 (stereo not shown) [drawing 398]', 73.9),
  ('Clc1ccc(N2N=NC3C4CC(C5NNC45)C32)cc1 (stereo not shown) [drawing 395]', 54.4),
  ('Clc1ccc(N2N=NC3C4CC(C5N=NC45)C32)cc1 (stereo not shown) [drawing 393]', 60.9);

Okay, next one:
# input Give me measured response vs control in vivo at 6000 g/ha, please, for this molecule: Brc1ccc(N2N=NC3C4CC(C5N=NC45)C32)cc1 (stereo not shown) [drawing 397]
# output 60.9

* * *

System: Cynodon dactylon
Experiment: Growth-regulating action, postemergence, greenhouse (Example 35, Table 1)
Type: in vivo
Details: 0.5 kg/ha, control 100
Doc: threshold 60 (exclusive). Items with growth height relative beneath it return t; others return f.

# input Please determine if Clc1ccc(N2C3C4CC(C5N=NC45)C32)cc1Cl (stereo not drawn) is below 60 in terms of growth height relative.
# output f

# input Please determine if FC(F)(F)c1cccc(N2C3C4CC(C5N=NC45)C32)c1 (stereo not drawn) [drawing 434] is below 60 in terms of growth height relative.
# output t

# input Please determine if C[N+](C)(C)CCCl [[ClCH2CH2N(CH3⊕)3]Cl⊖, reference compound] is below 60 in terms of growth height relative.
# output f

# input Please determine if CN(C)NC(=O)CCC(=O)O [drawing 437, reference compound] is below 60 in terms of growth height relative.
# output f

# input Please determine if c1csc(N2C3C4CC(C5N=NC45)C32)n1 (stereo not drawn) is below 60 in terms of growth height relative.
# output f

# input Please determine if c1cc2sncc2cc1N1C2C3CC(C4N=NC34)C21 (stereo not drawn) is below 60 in terms of growth height relative.
# output t

* * *

Entries and their measured Second cutting, growth height relative follow.
Tested on: lawns
Assay: Long-term action on lawns (Example 14)
Assay type: in vivo
Conditions: 0.5 kg/ha; control 100

Record excerpt, results attached:
INSERT INTO assay_data (compound, attributemeasured, reportedvalue) VALUES
  ('Cc1ccccc1N1N=NC2C3CC(C4N=NC34)C21 (stereo not drawn)', 'Second cutting, growth height relative', 88.4),
  ('CC(=O)Nc1ccc(C)c(NS(=O)(=O)C(F)(F)F)c1 [S, reference compound]', 'Second cutting, growth height relative', 95.2);

# input Param request: Second cutting, growth height relative | system lawns | item Fc1ccc(N2N=NC3C4CC(C5N=NC45)C32)cc1 (stereo not drawn)
# output 68.0

# input Param request: Second cutting, growth height relative | system lawns | item c1cc2sncc2cc1N1N=NC2C3CC(C4N=NC34)C21 (stereo not drawn) [drawing 382]
# output 95.2

# input Param request: Second cutting, growth height relative | system lawns | item Clc1ccc(N2N=NC3C4CC(C5NNC45)C32)cc1 (stereo not drawn) [drawing 381]
# output 85.0

# input Param request: Second cutting, growth height relative | system lawns | item Brc1ccc(N2N=NC3C4CC(C5N=NC45)C32)cc1 (stereo not drawn) [drawing 380]
# output 98.6

* * *

System: Solanum nigrum
Assay: Herbicidal action (Example 25)
Assay type: in vivo
Details: preemergence, 2.0 kg/ha
attributeMeasured: percentage damage (percentage damage)
Express the result in percentage damage but write the number alone.

Record excerpt, results attached:
INSERT INTO results (molecule, reportedvalue) VALUES
  ('C=CCN(CC=C)C(=O)CCl [drawing 428]', 0),
  ('CC(C)OC(=O)Nc1cccc(Cl)c1 [drawing 426]', 85),
  ('c1csc(N2N=NC3C4CC(C5N=NC45)C32)n1 (centres unmarked) [drawing 432]', 95);

# input Give me measured percentage damage, please, for this molecule: CN(C)C(=O)Nc1ccc(Oc2ccccc2)cc1 [drawing 427]
# output 75

# input Give me measured percentage damage, please, for this molecule: c1ccc(N2N=NC3C4CC(C5N=NC45)C32)cc1 (centres unmarked) [drawing 431]
# output 95

* * *

Tested on: Triticum aestivum
Assay: Growth height of young cereal plants (Example 11, Table A)
Assay type: in vivo
Conditions: soil treatment, 2.0 kg/ha
attributeMeasured: Growth height
// unit must come after the numeric part

Record excerpt, results attached:
INSERT INTO results (compound, reportedvalue) VALUES
  ('Brc1ccccc1N1N=NC2C3CC(C4N=NC34)C21 (stereo not drawn) [drawing 365]', '10 cm'),
  ('Clc1ccc(N2N=NC3C4CC(C5N=NC45)C32)c(Cl)c1 (stereo not drawn)', '20 cm');

# input Give me measured Growth height, please, for this compound: Clc1ccc(N2N=NC3C4CC(C5NNC45)C32)cc1 (stereo not drawn) [drawing 369]
# output 7 cm

# input Give me measured Growth height, please, for this compound: Clc1ccc(CN2N=NC3C4CC(C5N=NC45)C32)cc1 (stereo not drawn)
# output 30 cm

# input Give me measured Growth height, please, for this compound: FC(F)(F)c1ccc(Cl)c(N2N=NC3C4CC(C5N=NC45)C32)c1 (stereo not drawn) [drawing 361]
# output 0 cm

# input Give me measured Growth height, please, for this compound: c1cc2sncc2cc1N1N=NC2C3CC(C4N=NC34)C21 (stereo not drawn) [drawing 368]
# output 23 cm

* * *

Tested on: lawns
Experiment: Long-term action on lawns (Example 14)
Format: in vivo
Details: 1.0 kg/ha; control 100
attributeMeasured: First cutting, growth height relative
No unit in the answer, please; the number alone is enough.

INSERT INTO measurements (compound, targetundertest, attributemeasured, reportedvalue) VALUES
  ('Cc1ccccc1N1N=NC2C3CC(C4N=NC34)C21 (stereo not drawn)', 'lawns', 'First cutting, growth height relative', 77.8),
  ('CC(=O)Nc1ccc(C)c(NS(=O)(=O)C(F)(F)F)c1 [S, reference compound]', 'lawns', 'First cutting, growth height relative', 72.2),
  ('Fc1ccc(N2N=NC3C4CC(C5N=NC45)C32)cc1 (stereo not drawn)', 'lawns', 'First cutting, growth height relative', 69.5),
  ('Clc1ccc(N2N=NC3C4CC(C5NNC45)C32)cc1 (stereo not drawn) [drawing 381]', 'lawns', 'First cutting, growth height relative', 75.0),
  ('c1cc2sncc2cc1N1N=NC2C3CC(C4N=NC34)C21 (stereo not drawn) [drawing 382]', 'lawns', 'First cutting, growth height relative', 91.7);

Okay, next one:
# input Give me measured First cutting, growth height relative, please, for this compound: Brc1ccc(N2N=NC3C4CC(C5N=NC45)C32)cc1 (stereo not drawn) [drawing 380]
# output 69.5
